- experimental-system: ATP-binding cassette sub-family C member 4 (Homo sapiens, UniProt O15439)
- Sequence (O15439 whole entry): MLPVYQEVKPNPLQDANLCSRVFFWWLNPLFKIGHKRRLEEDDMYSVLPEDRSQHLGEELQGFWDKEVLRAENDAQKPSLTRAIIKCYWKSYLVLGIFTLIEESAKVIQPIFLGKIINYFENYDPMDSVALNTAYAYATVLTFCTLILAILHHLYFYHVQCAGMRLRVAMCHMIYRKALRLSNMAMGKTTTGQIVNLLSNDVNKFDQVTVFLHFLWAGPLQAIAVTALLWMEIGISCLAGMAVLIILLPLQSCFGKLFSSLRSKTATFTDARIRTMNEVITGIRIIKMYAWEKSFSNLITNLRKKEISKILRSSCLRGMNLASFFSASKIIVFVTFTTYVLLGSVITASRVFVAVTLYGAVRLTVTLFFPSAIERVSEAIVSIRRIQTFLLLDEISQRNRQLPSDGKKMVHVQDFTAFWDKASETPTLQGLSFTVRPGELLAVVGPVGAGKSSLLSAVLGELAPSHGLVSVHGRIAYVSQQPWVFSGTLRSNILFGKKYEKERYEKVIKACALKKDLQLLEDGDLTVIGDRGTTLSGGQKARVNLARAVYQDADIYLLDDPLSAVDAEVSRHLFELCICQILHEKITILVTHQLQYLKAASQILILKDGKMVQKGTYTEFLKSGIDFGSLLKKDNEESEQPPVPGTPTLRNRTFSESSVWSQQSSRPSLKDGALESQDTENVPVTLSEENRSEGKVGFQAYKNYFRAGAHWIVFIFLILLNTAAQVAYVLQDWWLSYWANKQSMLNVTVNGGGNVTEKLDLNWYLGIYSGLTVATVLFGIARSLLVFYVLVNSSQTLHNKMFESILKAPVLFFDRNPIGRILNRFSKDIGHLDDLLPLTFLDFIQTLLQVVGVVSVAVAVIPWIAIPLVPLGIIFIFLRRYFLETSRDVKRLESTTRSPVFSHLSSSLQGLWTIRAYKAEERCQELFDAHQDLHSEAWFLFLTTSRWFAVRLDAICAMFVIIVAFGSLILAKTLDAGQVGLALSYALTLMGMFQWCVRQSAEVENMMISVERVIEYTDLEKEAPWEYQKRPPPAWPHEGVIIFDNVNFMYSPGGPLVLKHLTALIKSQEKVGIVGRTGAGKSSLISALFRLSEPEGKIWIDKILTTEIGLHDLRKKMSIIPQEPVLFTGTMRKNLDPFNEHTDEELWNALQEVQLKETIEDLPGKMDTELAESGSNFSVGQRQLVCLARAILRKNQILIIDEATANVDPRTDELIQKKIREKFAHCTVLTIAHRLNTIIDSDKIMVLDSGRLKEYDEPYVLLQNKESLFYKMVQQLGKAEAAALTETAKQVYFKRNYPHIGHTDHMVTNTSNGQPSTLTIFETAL
- assay: Inhibition of human MRP4 overexpressed in Sf9 cell membrane vesicles assessed as uptake of [3H]-estradiol-17beta-D-glucuronide in presence of ATP and GSH measured after 20 mins by membrane vesicle transport assay
Give measured pIC50 for each item. Keep answers brief.
The read-out pIC50 is expressed as -log10 of concentration in moles per litre.

Query string: For the compound CC[C@H]1OC(=O)[C@H](C)[C@@H](O[C@H]2C[C@@](C)(OC)[C@@H](O)[C@H](C)O2)[C@H](C)[C@@H](O[C@@H]2O[C@H](C)C[C@H](N(C)C)[C@H]2O)[C@](C)(O)C[C@@H](C)C(=O)[C@H](C)[C@@H](O)[C@]1(C)O , what pIC50 is on record?
Result string: 4.17

Query string: Request the reported pIC50 associated with CC(C)/N=c1\cc2n(-c3ccc(Cl)cc3)c3ccccc3nc-2cc1Nc1ccc(Cl)cc1 [CLOFAZIMINE]
Result string: 4.35

----------
- assay: AUC in human at 50 to 100 mg, po QD after 24 hrs
- Assay type: ADME, organism-based
- setup-conditions: in vivo
readout: AUC at 24 h
# number then unit; no other words

Query string: Which AUC at 24 h is listed for CCCCc1nc(Cl)c(CO)n1Cc1ccc(-c2ccccc2-c2nnn[n-]2)cc1.[K+] ?
Result string: 2.42 µM·h

----------
- assay: AUC in human at 30 to 60 mg, po QD after 24 hrs
- Assay type: ADME, organism-based
- setup-conditions: in vivo
readout: AUC at 24 h
Quote the value and follow it with the unit of measurement.

Query string: Endpoint output: AUC at 24 h of COC(=O)C1=C(C)NC(C)=C(C(=O)OC)C1c1ccccc1[N+](=O)[O-] [NIFEDIPINE] . Value?
Result string: 3.48 µM·h

----------
- assay: AUC in human at 300 to 600 mg, po QD after 24 hrs
- Assay type: ADME, organism-based
- setup-conditions: in vivo
readout: AUC at 24 h (µM·h)
Field format: number, assumed µM·h, no unit text.

Query string: // lookup AUC at 24 h for CCc1nn(CCCN2CCN(c3cccc(Cl)c3)CC2)c(=O)n1CCOc1ccccc1 [NEFAZODONE]
Result string: 14.5

----------
- experimental-system: ATP-binding cassette sub-family C member 4 (Homo sapiens)
- assay: Inhibition of human MRP4 overexpressed in Sf9 cell membrane vesicles assessed as uptake of [3H]-estradiol-17beta-D-glucuronide in presence of ATP and GSH measured after 20 mins by membrane vesicle transport assay
pIC50: −log10 of the molar value.
Assign pIC50 to each entry below.

Query string: API: value(readout= pIC50, system= ATP-binding cassette sub-family C member 4 (Homo sapiens), query= CC(C)C[C@H](NC(=O)[C@@H](COC(C)(C)C)NC(=O)[C@H](Cc1ccc(O)cc1)NC(=O)[C@H](CO)NC(=O)[C@H](Cc1c[nH]c2ccccc12)NC(=O)[C@H](Cc1cnc[nH]1)NC(=O)[C@@H]1CCC(=O)N1)C(=O)N[C@@H](CCCNC(=N)N)C(=O)N1CCC[C@H]1C(=O)NNC(N)=O [GOSERELIN ACETATE] )
Result string: < 3.88

Query string: Lab note: need pIC50 for CCCCCC[C@H]1C(=O)O[C@H](C)[C@H](NC(=O)c2cccc(NC=O)c2O)C(=O)O[C@@H](C)[C@@H]1OC(=O)CC(C)C [ANTIMYCIN A] on ATP-binding cassette sub-family C member 4 (Homo sapiens), anyone have it?
Result string: < 3.88

Query string: Notebook entry, ATP-binding cassette sub-family C member 4 (Homo sapiens) assay: pIC50 of CC[C@H](C)C(=O)O[C@H]1C[C@@H](C)C=C2C=C[C@H](C)[C@H](CC[C@@H]3C[C@@H](O)CC(=O)O3)[C@H]21 [LOVASTATIN] = ?
Result string: < 3.88

Query string: Hello, I am looking for reported pIC50 with ATP-binding cassette sub-family C member 4 (Homo sapiens) for CCOC(=O)c1ccc(N)cc1 [BENZOCAINE] . Could you help?
Result string: < 3.88

Query string: Report pIC50 for CC[C@H]1OC(=O)[C@H](C)C(=O)[C@H](C)[C@@H](O[C@@H]2O[C@H](C)C[C@H](N(C)C)[C@H]2O)[C@](C)(OC)C[C@@H](C)C(=O)[C@H](C)[C@H]2N(CCCCn3cnc(-c4cccnc4)c3)C(=O)O[C@]12C [TELITHROMYCIN] tested on ATP-binding cassette sub-family C member 4 (Homo sapiens).
Result string: 5.15

Query string: For ATP-binding cassette sub-family C member 4 (Homo sapiens), provide pIC50 of CC(SC(=O)c1cccs1)C(=O)NCC(=O)O (stereo not given) [STEPRONIN] please.
Result string: < 3.88

Query string: Lab request: please report pIC50 under test system ATP-binding cassette sub-family C member 4 (Homo sapiens) for C[C@H](CS)C(=O)N1CCC[C@H]1C(=O)O [CAPTOPRIL]
Result string: < 3.88

Query string: Recall the recorded pIC50 for CNCCCN1c2ccccc2CCc2ccccc21 [DESIPRAMINE] with ATP-binding cassette sub-family C member 4 (Homo sapiens) and state it.
Result string: < 3.88

Query string: Observed pIC50 on ATP-binding cassette sub-family C member 4 (Homo sapiens) for Nc1nc(=O)[nH]cc1F [FLUCYTOSINE] , please.
Result string: < 3.88

Query string: Please provide the recorded pIC50 for NCc1ccc(S(N)(=O)=O)cc1 [MAFENIDE ACETATE] , tested on ATP-binding cassette sub-family C member 4 (Homo sapiens).
Result string: < 3.88

Query string: Kindly state the measured pIC50 obtained for CCCN[C@H]1CCc2nc(N)sc2C1 [PRAMIPEXOLE] with ATP-binding cassette sub-family C member 4 (Homo sapiens).
Result string: < 3.88

Query string: Any idea what pIC50 came out for Cc1ncc([N+](=O)[O-])n1CCO [METRONIDAZOLE] on ATP-binding cassette sub-family C member 4 (Homo sapiens)?
Result string: < 3.88

Query string: // lookup pIC50 | system=ATP-binding cassette sub-family C member 4 (Homo sapiens) | key= CC(C)(C)c1ccc(C(=O)CCCN2CCC(OC(c3ccccc3)c3ccccc3)CC2)cc1 [EBASTINE]
Result string: < 3.88

Query string: State its pIC50 on ATP-binding cassette sub-family C member 4 (Homo sapiens): CCOC(=O)/C=C(C)/C=C/C=C(C)/C=C/c1c(C)cc(OC)c(C)c1C [ETRETINATE]
Result string: < 3.88

Query string: Fill in the recorded pIC50 for this compound, with ATP-binding cassette sub-family C member 4 (Homo sapiens) as test system: CC(=O)OCC(=O)[C@@]1(O)[C@H](OC(C)=O)C[C@H]2[C@@H]3CCC4=CC(=O)C=C[C@]4(C)[C@@]3(F)[C@@H](O)C[C@@]21C [TRIAMCINOLONE DIACETATE]
Result string: < 3.88
